Ref: ChEMBL document CHEMBL5058577

Reported Population Hoechst High Intensity Objects (%) is given for each of the following molecules.
Test system: Fibroblast
Test: Multiplex assay against human fibroblast
Assay type: toxicity, cell-based
Details: 48 h, 10 µM, compound concentration 10 uM, replicate 1
Non-standard residues stand in square brackets, D forms with d. Residues, ends and D or L forms follow the SMILES beside them.
Expressed in %, but write only the number.

Check out these entries, answers already filled in.
CN1C[C@H](C(=O)N[C@]2(C)O[C@@]3(O)[C@@H]4CCCN4C(=O)[C@H](Cc4ccccc4)N3C2=O)C[C@@H]2c3cccc4[nH]cc(c34)C[C@H]21.CS(=O)(=O)O [DIHYDROERGOTAMINE MESYLATE] | 3
COC(c1ccccc1)(c1ccccc1)[C@H](Oc1nc(C)cc(C)n1)C(=O)O [AMBRISENTAN] | 7
CC(C)C[C@@H]1NC(=O)[C@@H](C(C)C)NC(=O)[C@@H]2CCCN2C(=O)[C@@H](CC(=O)O)NC(=O)[C@@H](Cc2c[nH]c3ccccc23)NC1=O [BQ-123] (cyclo(L[dW][dD]P[dV])) | 5
N[C@](CC1c2ccccc2Oc2ccccc21)(C(=O)O)[C@H]1C[C@@H]1C(=O)O | 5
CC(C)(O)C(=O)N1CCN(c2ccc(C(F)(F)F)c(C3=C(c4c[nH]c5ccccc45)C(=O)NC3=O)c2)CC1 | 12

Can you share its Population Hoechst High Intensity Objects (%)? I mean this molecule: CCn1c(-c2nc3cc(C(=O)N4CCCC(N)C4)ccc3n2C)cc2ccccc21.Cl (stereo unspecified)
3

What does the record list as Population Hoechst High Intensity Objects (%) for Nc1nc(CC(=O)Nc2ccc(CCNC[C@H](O)c3ccccc3)cc2)cs1 [MIRABEGRON] ?
4

Item under review: CN1CCC(C(=O)c2cccc(NC(=O)c3c(F)cc(F)cc3F)n2)CC1 . Reported Population Hoechst High Intensity Objects (%)?
5

Quick check: Population Hoechst High Intensity Objects (%) of C=CCN1C[C@H](C(=O)N(CCCN(C)C)C(=O)NCC)C[C@@H]2c3cccc4[nH]cc(c34)C[C@H]21 [CABERGOLINE] ?
4

What measured Population Hoechst High Intensity Objects (%) goes with O=c1nc2[nH]c3ccccc3nc-2c(=O)[nH]1 [ALLOXAZINE] ?
6

I am curious: what Population Hoechst High Intensity Objects (%) value has been reported for COc1cc(C(=O)N2CC[C@@H](O)[C@@H](N)C2)cc2nc(-c3cc4ccccc4n3CC3CC3)n(C)c12.Cl ?
8

Which value of Population Hoechst High Intensity Objects (%) has been reported for O=c1ccc2ccc(OCCCCN3CCN(c4cccc5sccc45)CC3)cc2[nH]1 [BREXPIPRAZOLE] in the records?
34

What value of measured Population Hoechst High Intensity Objects (%) is listed for CCc1nn2c(C)cc(C)nc2c1Cc1ccc(-c2nnc(C3CCNCC3)o2)cc1 ?
9

Requested field: Population Hoechst High Intensity Objects (%). Item: Cc1c(Cc2ccc3ccccc3n2)c2cc(F)ccc2n1CC(=O)O [TIMAPIPRANT]
5

I have this molecule here, CN1CCN2c3ccccc3Cc3ccccc3C2C1.Cl (stereo unspecified) [MIANSERIN HYDROCHLORIDE] , and I need its recorded Population Hoechst High Intensity Objects (%).
5

Quick one: Population Hoechst High Intensity Objects (%) of Cc1cc(O)c(-c2ccc([C@@H](C)CN(C)C)cc2)c2c1[nH]c(=O)c1sccc12 ?
10
